Tested on: CD8+ T cells of healthy HLA-A*02 donors
Assay: In vitro immunogenicity: T-cell priming with aAPCs loaded with peptide/MHC and anti-CD28, pMHC multimer readout
Type: cell-based, human
Settings: in vitro immunogenicity, HLA-A*02 restricted peptides; percentage of positive wells among evaluable
PARAMETER: Wells positive [%]

Worked examples, 5 substances total:
SUBSTANCE	PARAMETER	RESULT
97 (KLFEKSTGL; listed as Homo sapiens) [compound 97]	Wells positive [%]	+ (<20% = +)
254 (ALGDKFLLRV; listed as Homo sapiens) [compound 254]	Wells positive [%]	+ (<20% = +)
233 (SLFESLEYL; listed as Homo sapiens) [compound 233]	Wells positive [%]	+ (<20% = +)
89 (SLAETIFIV; listed as Homo sapiens) [compound 89]	Wells positive [%]	+ (<20% = +)
234 (VLLNEILEQV; listed as Homo sapiens) [compound 234]	Wells positive [%]	++ (20%-49% = ++)

// lookup Wells positive [%] | system=CD8+ T cells of healthy HLA-A*02 donors | key= 27 (GLLGKVTSV; listed as Homo sapiens) [compound 27]
+ (<20% = +)

What would you report for 66 (AMFPDTIPRV; listed as Homo sapiens) [compound 66] ?
+ (<20% = +)

What would you report for 255 (FLMKNSDLYGA; listed as Homo sapiens) [compound 255] ?
+ (<20% = +)

What would you report for 29 (KMISAIPTL; listed as Homo sapiens) [compound 29] ?
+ (<20% = +)

What would you report for 117 (TLLEGISRA; listed as Homo sapiens) [compound 117] ?
++ (20%-49% = ++)

What would you report for 17 (GLLPSAESIKL; listed as Homo sapiens) [compound 17] ?
+ (<20% = +)

What would you report for 9 (SLITGQDLLSV; listed as Homo sapiens) [compound 9] ?
+ (<20% = +)

What would you report for 248 (VLMQDSRLYL; listed as Homo sapiens) [compound 248] ?
++ (20%-49% = ++)

What would you report for 267 (YLLDMPLWYL; listed as Homo sapiens) [compound 267] ?
+ (<20% = +)

What would you report for 251 (LLWGNLPEI; listed as Homo sapiens) [compound 251] ?
++ (20%-49% = ++)

What would you report for 92 (RLFEEVLGV; listed as Homo sapiens) [compound 92] ?
++ (20%-49% = ++)

What would you report for 48 (KISDFGLATV; listed as Homo sapiens) [compound 48] ?
++ (20%-49% = ++)

What would you report for 275 (AVPPPPSSV; listed as Homo sapiens) [compound 275] ?
++ (20%-49% = ++)

What would you report for 264 (TLHDQVHLL; listed as Homo sapiens) [compound 264] ?
+ (<20% = +)

What would you report for 263 (SIIEYLPTL; listed as Homo sapiens) [compound 263] ?
+ (<20% = +)

Data provenance is patent US20160279215A1.
